FYI, the data here is from paper PMC11480844.

B1: H2-Kb / Ed39 (parent complex)
chain 1: GEQVEQRPPHLSVREGDSAVIICTYTDPNSYYFFWYKQEPGAGLQLLMKVFSSTEINEGQGFTVLLNKKDKQLSLNLTAAHPGDSAVYFCATMSNYNVLYFGSGTKLTVEP
chain 2: GALVYQYPRRTICKSGTSMRMECQAVGFQATSVAWYRQSPQKTFELIALSTVNSAIKYEQNFTQEKFPISHPNLSFSSMTVLNAYLEDRGLYLCGARDGSYEQYFGPGTRLTVL
chain 3: not shown
chain 4: IQKTPQIQVYSRHPPENGKPNILNCYVTQFHPPHIEIQMLKNGKKIPKVEMSDMSFSKDWSFYILAHTEFTPTETDTYACRVKHDSMAEPKTVYWDRDM
chain 5: SIINFEKL

Variants of: B1
Assay: % of reporter cells activated (NFAT-GFP), raw; also: test concentration or dose not given here
recorded_endpoint: ratio to parent

chain 5 I2R
0.593
chain 5 N4D
1.25
chain 5 L8N
0.884
chain 5 I3V
0.956
chain 5 S1V
0.0243

P: chain 5 S1A
Q: chain 5 S1T
Exercise: Pick one, P or Q : lowest reported ratio to parent. Kindly give the label for the entry you pick.
Solution: Q

1: chain 5 E6A
2: chain 5 I3Q
Exercise: Choose between 1 and 2 : whose measured ratio to parent value is numerically larger? Kindly give the label for the entry you pick.
Solution: 2
